# Test system: Staphylococcus aureus
# method: Antibacterial activity against susceptible Staphylococcus aureus after 20 hrs by agar dilution method
# Format: functional
Catalogue of compounds with associated MIC
quantity-measured: MIC (µg/mL)

item-smiles: CCC(=O)O[C@@H]1CC(=O)O[C@H](C)C[C@H](O)[C@H](N(C)CCCCc2ccccc2)/C=C/[C@H](OC(C)=O)[C@H](C)C[C@H](CC=O)[C@H](O[C@@H]2O[C@H](C)[C@@H](O[C@H]3C[C@@](C)(O)[C@@H](OC(=O)CC)[C@H](C)O3)[C@H](N(C)C)[C@H]2O)[C@H]1OC
observed: 0.39
--
item-smiles: CCC(=O)O[C@@H]1CC(=O)O[C@H](C)C/C=C/C=C/[C@H](OC(C)=O)[C@H](C)C[C@H](CC=O)[C@H](O[C@@H]2O[C@H](C)[C@@H](O[C@H]3C[C@@](C)(OC(C)=O)[C@@H](OC(=O)CC)[C@H](C)O3)[C@H](N(C)C)[C@H]2O)[C@H]1OC
observed: 0.78
--
item-smiles: CCC(=O)O[C@@H]1CC(=O)O[C@H](C)C[C@H](O)[C@H](N(C)CCCCCCc2ccccc2)/C=C/[C@H](OC(C)=O)[C@H](C)C[C@H](CC=O)[C@H](O[C@@H]2O[C@H](C)[C@@H](O[C@H]3C[C@@](C)(O)[C@@H](OC(=O)CC)[C@H](C)O3)[C@H](N(C)C)[C@H]2O)[C@H]1OC
observed: 0.39
